Molecular target: panel of more than 300 wild-type and mutant kinases (313 kinase panel) (Homo sapiens, UniProt Q9UM73, F1174L)
Experiment: Kinase profiling in a biochemical assay panel (mobility shift assays and ELISA), %-inhibition at 1 μM; selectivity entropy
Settings: kinase ALK(F1174L); 1 μM compound
Below, each entry is listed alongside its reported %-inhibition, ALK(F1174L).
MEASUREMENT NAME: %-inhibition, ALK(F1174L)

[
  {
    "COMPOUND": "Cc1ccc(Nc2nccc(N(C)c3ccc4c(C)n(C)nc4c3)n2)cc1S(N)(=O)=O",
    "MEASUREMENT": "26%"
  },
  {
    "COMPOUND": "COc1cc2nccc(Oc3ccc(NC(=O)C4(C(=O)Nc5ccc(F)cc5)CC4)cc3)c2cc1OC [cabozantinib]",
    "MEASUREMENT": "6.54%"
  },
  {
    "COMPOUND": "Cc1cn(-c2cc(NC(=O)c3ccc(C)c(Nc4nccc(-c5cccnc5)n4)c3)cc(C(F)(F)F)c2)cn1",
    "MEASUREMENT": "-45%"
  },
  {
    "COMPOUND": "O=S(=O)(c1cccc2cnccc12)N1CCCNCC1",
    "MEASUREMENT": "-4%"
  },
  {
    "COMPOUND": "CO[C@H]1C[C@@H]2CC[C@@H](C)[C@@](O)(O2)C(=O)C(=O)N2CCCC[C@H]2C(=O)O[C@H]([C@H](C)C[C@@H]2CC[C@@H](OCCO)[C@H](OC)C2)CC(=O)[C@H](C)/C=C(\\C)[C@@H](O)[C@@H](OC)C(=O)[C@H](C)C[C@H](C)/C=C/C=C/C=C/1C",
    "MEASUREMENT": "-3.68%"
  },
  {
    "COMPOUND": "CS(=O)(=O)CCNCc1ccc(-c2ccc3ncnc(Nc4ccc(OCc5cccc(F)c5)c(Cl)c4)c3c2)o1",
    "MEASUREMENT": "1.61%"
  },
  {
    "COMPOUND": "Cc1ccc(C(=O)Nc2ccc(CN3CCN(C)CC3)c(C(F)(F)F)c2)cc1C#Cc1cnc2cccnn12",
    "MEASUREMENT": "5%"
  },
  {
    "COMPOUND": "CCCS(=O)(=O)Nc1ccc(F)c(C(=O)c2c[nH]c3ncc(-c4ccc(Cl)cc4)cc23)c1F",
    "MEASUREMENT": "-1.36%"
  },
  {
    "COMPOUND": "COc1cc(Nc2c(C#N)cnc3cc(OCCCN4CCN(C)CC4)c(OC)cc23)c(Cl)cc1Cl",
    "MEASUREMENT": "71%"
  },
  {
    "COMPOUND": "CC(=O)Nc1cccc(-n2c(=O)n(C3CC3)c(=O)c3c(Nc4ccc(I)cc4F)n(C)c(=O)c(C)c32)c1",
    "MEASUREMENT": "-7%"
  },
  {
    "COMPOUND": "CO[C@H]1C[C@@H]2CC[C@@H](C)[C@@](O)(O2)C(=O)C(=O)N2CCCC[C@H]2C(=O)O[C@H]([C@H](C)C[C@@H]2CC[C@@H](OC(=O)C(C)(CO)CO)[C@H](OC)C2)CC(=O)[C@H](C)/C=C(\\C)[C@@H](O)[C@@H](OC)C(=O)[C@H](C)C[C@H](C)/C=C/C=C/C=C/1C",
    "MEASUREMENT": "-6%"
  },
  {
    "COMPOUND": "CNC(=O)c1cc(Oc2ccc(NC(=O)Nc3ccc(Cl)c(C(F)(F)F)c3)c(F)c2)ccn1",
    "MEASUREMENT": "-7.49%"
  }
]

---

Biological target: panel of more than 300 wild-type and mutant kinases (313 kinase panel) (Homo sapiens)
Assay: Kinase profiling in a biochemical assay panel (mobility shift assays and ELISA), %-inhibition at 1 μM; selectivity entropy
Settings: kinase SRC; 1 μM
Below, each entry is listed alongside its reported %-inhibition of SRC.

[
  {
    "COMPOUND": "CNC(=O)c1cc(Oc2ccc(NC(=O)Nc3ccc(Cl)c(C(F)(F)F)c3)c(F)c2)ccn1 [regorafenib]",
    "%-inhibition of SRC, %": 44
  },
  {
    "COMPOUND": "CS(=O)(=O)CCNCc1ccc(-c2ccc3ncnc(Nc4ccc(OCc5cccc(F)c5)c(Cl)c4)c3c2)o1 [lapatinib]",
    "%-inhibition of SRC, %": 6
  },
  {
    "COMPOUND": "CCCS(=O)(=O)Nc1ccc(F)c(C(=O)c2c[nH]c3ncc(-c4ccc(Cl)cc4)cc23)c1F [vemurafenib]",
    "%-inhibition of SRC, %": 52
  },
  {
    "COMPOUND": "CO[C@H]1C[C@@H]2CC[C@@H](C)[C@@](O)(O2)C(=O)C(=O)N2CCCC[C@H]2C(=O)O[C@H]([C@H](C)C[C@@H]2CC[C@@H](OCCO)[C@H](OC)C2)CC(=O)[C@H](C)/C=C(\\C)[C@@H](O)[C@@H](OC)C(=O)[C@H](C)C[C@H](C)/C=C/C=C/C=C/1C [everolimus]",
    "%-inhibition of SRC, %": 2.64
  },
  {
    "COMPOUND": "COc1cc2nccc(Oc3ccc(NC(=O)C4(C(=O)Nc5ccc(F)cc5)CC4)cc3)c2cc1OC [cabozantinib]",
    "%-inhibition of SRC, %": 92
  },
  {
    "COMPOUND": "N#CC[C@H](C1CCCC1)n1cc(-c2ncnc3[nH]ccc23)cn1 [ruxolitinib]",
    "%-inhibition of SRC, %": 16
  },
  {
    "COMPOUND": "CO[C@H]1C[C@@H]2CC[C@@H](C)[C@@](O)(O2)C(=O)C(=O)N2CCCC[C@H]2C(=O)O[C@H]([C@H](C)C[C@@H]2CC[C@@H](OC(=O)C(C)(CO)CO)[C@H](OC)C2)CC(=O)[C@H](C)/C=C(\\C)[C@@H](O)[C@@H](OC)C(=O)[C@H](C)C[C@H](C)/C=C/C=C/C=C/1C [temsirolimus]",
    "%-inhibition of SRC, %": 0.915
  },
  {
    "COMPOUND": "CC(=O)Nc1cccc(-n2c(=O)n(C3CC3)c(=O)c3c(Nc4ccc(I)cc4F)n(C)c(=O)c(C)c32)c1 [trametinib]",
    "%-inhibition of SRC, %": -5.4
  },
  {
    "COMPOUND": "Cc1ccc(C(=O)Nc2ccc(CN3CCN(C)CC3)c(C(F)(F)F)c2)cc1C#Cc1cnc2cccnn12 [ponatinib]",
    "%-inhibition of SRC, %": 102
  },
  {
    "COMPOUND": "COc1cc(Nc2c(C#N)cnc3cc(OCCCN4CCN(C)CC4)c(OC)cc23)c(Cl)cc1Cl [bosutinib]",
    "%-inhibition of SRC, %": 96
  },
  {
    "COMPOUND": "CC(C)(C)c1nc(-c2cccc(NS(=O)(=O)c3c(F)cccc3F)c2F)c(-c2ccnc(N)n2)s1 [dabrafenib]",
    "%-inhibition of SRC, %": 68
  },
  {
    "COMPOUND": "Cc1ccc(Nc2nccc(N(C)c3ccc4c(C)n(C)nc4c3)n2)cc1S(N)(=O)=O [pazopanib]",
    "%-inhibition of SRC, %": 67
  },
  {
    "COMPOUND": "O=S(=O)(c1cccc2cnccc12)N1CCCNCC1 [fasudil]",
    "%-inhibition of SRC, %": -5
  },
  {
    "COMPOUND": "Cc1cn(-c2cc(NC(=O)c3ccc(C)c(Nc4nccc(-c5cccnc5)n4)c3)cc(C(F)(F)F)c2)cn1 [nilotinib]",
    "%-inhibition of SRC, %": 23
  }
]

---

Biological target: panel of more than 300 wild-type and mutant kinases (313 kinase panel) (Homo sapiens, UniProt P08581, Y1235D)
Test: Kinase profiling in a biochemical assay panel (mobility shift assays and ELISA), %-inhibition at 1 μM; selectivity entropy
Conditions: kinase MET(Y1235D); compound at 1 μM
Below, each entry is listed alongside its reported %-inhibition of MET(Y1235D).

[
  {
    "CHEMICAL SMILES": "CCCS(=O)(=O)Nc1ccc(F)c(C(=O)c2c[nH]c3ncc(-c4ccc(Cl)cc4)cc23)c1F",
    "MEASUREMENT UNIT": "%",
    "%-inhibition of MET(Y1235D)": 2.5
  },
  {
    "CHEMICAL SMILES": "O=S(=O)(c1cccc2cnccc12)N1CCCNCC1",
    "MEASUREMENT UNIT": "%",
    "%-inhibition of MET(Y1235D)": -2.65
  },
  {
    "CHEMICAL SMILES": "CS(=O)(=O)CCNCc1ccc(-c2ccc3ncnc(Nc4ccc(OCc5cccc(F)c5)c(Cl)c4)c3c2)o1",
    "MEASUREMENT UNIT": "%",
    "%-inhibition of MET(Y1235D)": 2
  },
  {
    "CHEMICAL SMILES": "CNC(=O)c1cc(Oc2ccc(NC(=O)Nc3ccc(Cl)c(C(F)(F)F)c3)c(F)c2)ccn1",
    "MEASUREMENT UNIT": "%",
    "%-inhibition of MET(Y1235D)": -1.72
  },
  {
    "CHEMICAL SMILES": "Cc1cn(-c2cc(NC(=O)c3ccc(C)c(Nc4nccc(-c5cccnc5)n4)c3)cc(C(F)(F)F)c2)cn1",
    "MEASUREMENT UNIT": "%",
    "%-inhibition of MET(Y1235D)": -4.56
  },
  {
    "CHEMICAL SMILES": "CC(=O)Nc1cccc(-n2c(=O)n(C3CC3)c(=O)c3c(Nc4ccc(I)cc4F)n(C)c(=O)c(C)c32)c1",
    "MEASUREMENT UNIT": "%",
    "%-inhibition of MET(Y1235D)": -1.5
  },
  {
    "CHEMICAL SMILES": "CO[C@H]1C[C@@H]2CC[C@@H](C)[C@@](O)(O2)C(=O)C(=O)N2CCCC[C@H]2C(=O)O[C@H]([C@H](C)C[C@@H]2CC[C@@H](OC(=O)C(C)(CO)CO)[C@H](OC)C2)CC(=O)[C@H](C)/C=C(\\C)[C@@H](O)[C@@H](OC)C(=O)[C@H](C)C[C@H](C)/C=C/C=C/C=C/1C",
    "MEASUREMENT UNIT": "%",
    "%-inhibition of MET(Y1235D)": -6.4
  },
  {
    "CHEMICAL SMILES": "CC(C)(C)c1nc(-c2cccc(NS(=O)(=O)c3c(F)cccc3F)c2F)c(-c2ccnc(N)n2)s1",
    "MEASUREMENT UNIT": "%",
    "%-inhibition of MET(Y1235D)": 25
  },
  {
    "CHEMICAL SMILES": "COc1cc(Nc2c(C#N)cnc3cc(OCCCN4CCN(C)CC4)c(OC)cc23)c(Cl)cc1Cl",
    "MEASUREMENT UNIT": "%",
    "%-inhibition of MET(Y1235D)": 14
  },
  {
    "CHEMICAL SMILES": "CO[C@H]1C[C@@H]2CC[C@@H](C)[C@@](O)(O2)C(=O)C(=O)N2CCCC[C@H]2C(=O)O[C@H]([C@H](C)C[C@@H]2CC[C@@H](OCCO)[C@H](OC)C2)CC(=O)[C@H](C)/C=C(\\C)[C@@H](O)[C@@H](OC)C(=O)[C@H](C)C[C@H](C)/C=C/C=C/C=C/1C",
    "MEASUREMENT UNIT": "%",
    "%-inhibition of MET(Y1235D)": -5
  }
]
